Recorded measurements of IC50, one per entry
Target: Histone-lysine N-methyltransferase 2A (Homo sapiens) (UniProt Q03164)
Sequence (Q03164 whole entry, looked up): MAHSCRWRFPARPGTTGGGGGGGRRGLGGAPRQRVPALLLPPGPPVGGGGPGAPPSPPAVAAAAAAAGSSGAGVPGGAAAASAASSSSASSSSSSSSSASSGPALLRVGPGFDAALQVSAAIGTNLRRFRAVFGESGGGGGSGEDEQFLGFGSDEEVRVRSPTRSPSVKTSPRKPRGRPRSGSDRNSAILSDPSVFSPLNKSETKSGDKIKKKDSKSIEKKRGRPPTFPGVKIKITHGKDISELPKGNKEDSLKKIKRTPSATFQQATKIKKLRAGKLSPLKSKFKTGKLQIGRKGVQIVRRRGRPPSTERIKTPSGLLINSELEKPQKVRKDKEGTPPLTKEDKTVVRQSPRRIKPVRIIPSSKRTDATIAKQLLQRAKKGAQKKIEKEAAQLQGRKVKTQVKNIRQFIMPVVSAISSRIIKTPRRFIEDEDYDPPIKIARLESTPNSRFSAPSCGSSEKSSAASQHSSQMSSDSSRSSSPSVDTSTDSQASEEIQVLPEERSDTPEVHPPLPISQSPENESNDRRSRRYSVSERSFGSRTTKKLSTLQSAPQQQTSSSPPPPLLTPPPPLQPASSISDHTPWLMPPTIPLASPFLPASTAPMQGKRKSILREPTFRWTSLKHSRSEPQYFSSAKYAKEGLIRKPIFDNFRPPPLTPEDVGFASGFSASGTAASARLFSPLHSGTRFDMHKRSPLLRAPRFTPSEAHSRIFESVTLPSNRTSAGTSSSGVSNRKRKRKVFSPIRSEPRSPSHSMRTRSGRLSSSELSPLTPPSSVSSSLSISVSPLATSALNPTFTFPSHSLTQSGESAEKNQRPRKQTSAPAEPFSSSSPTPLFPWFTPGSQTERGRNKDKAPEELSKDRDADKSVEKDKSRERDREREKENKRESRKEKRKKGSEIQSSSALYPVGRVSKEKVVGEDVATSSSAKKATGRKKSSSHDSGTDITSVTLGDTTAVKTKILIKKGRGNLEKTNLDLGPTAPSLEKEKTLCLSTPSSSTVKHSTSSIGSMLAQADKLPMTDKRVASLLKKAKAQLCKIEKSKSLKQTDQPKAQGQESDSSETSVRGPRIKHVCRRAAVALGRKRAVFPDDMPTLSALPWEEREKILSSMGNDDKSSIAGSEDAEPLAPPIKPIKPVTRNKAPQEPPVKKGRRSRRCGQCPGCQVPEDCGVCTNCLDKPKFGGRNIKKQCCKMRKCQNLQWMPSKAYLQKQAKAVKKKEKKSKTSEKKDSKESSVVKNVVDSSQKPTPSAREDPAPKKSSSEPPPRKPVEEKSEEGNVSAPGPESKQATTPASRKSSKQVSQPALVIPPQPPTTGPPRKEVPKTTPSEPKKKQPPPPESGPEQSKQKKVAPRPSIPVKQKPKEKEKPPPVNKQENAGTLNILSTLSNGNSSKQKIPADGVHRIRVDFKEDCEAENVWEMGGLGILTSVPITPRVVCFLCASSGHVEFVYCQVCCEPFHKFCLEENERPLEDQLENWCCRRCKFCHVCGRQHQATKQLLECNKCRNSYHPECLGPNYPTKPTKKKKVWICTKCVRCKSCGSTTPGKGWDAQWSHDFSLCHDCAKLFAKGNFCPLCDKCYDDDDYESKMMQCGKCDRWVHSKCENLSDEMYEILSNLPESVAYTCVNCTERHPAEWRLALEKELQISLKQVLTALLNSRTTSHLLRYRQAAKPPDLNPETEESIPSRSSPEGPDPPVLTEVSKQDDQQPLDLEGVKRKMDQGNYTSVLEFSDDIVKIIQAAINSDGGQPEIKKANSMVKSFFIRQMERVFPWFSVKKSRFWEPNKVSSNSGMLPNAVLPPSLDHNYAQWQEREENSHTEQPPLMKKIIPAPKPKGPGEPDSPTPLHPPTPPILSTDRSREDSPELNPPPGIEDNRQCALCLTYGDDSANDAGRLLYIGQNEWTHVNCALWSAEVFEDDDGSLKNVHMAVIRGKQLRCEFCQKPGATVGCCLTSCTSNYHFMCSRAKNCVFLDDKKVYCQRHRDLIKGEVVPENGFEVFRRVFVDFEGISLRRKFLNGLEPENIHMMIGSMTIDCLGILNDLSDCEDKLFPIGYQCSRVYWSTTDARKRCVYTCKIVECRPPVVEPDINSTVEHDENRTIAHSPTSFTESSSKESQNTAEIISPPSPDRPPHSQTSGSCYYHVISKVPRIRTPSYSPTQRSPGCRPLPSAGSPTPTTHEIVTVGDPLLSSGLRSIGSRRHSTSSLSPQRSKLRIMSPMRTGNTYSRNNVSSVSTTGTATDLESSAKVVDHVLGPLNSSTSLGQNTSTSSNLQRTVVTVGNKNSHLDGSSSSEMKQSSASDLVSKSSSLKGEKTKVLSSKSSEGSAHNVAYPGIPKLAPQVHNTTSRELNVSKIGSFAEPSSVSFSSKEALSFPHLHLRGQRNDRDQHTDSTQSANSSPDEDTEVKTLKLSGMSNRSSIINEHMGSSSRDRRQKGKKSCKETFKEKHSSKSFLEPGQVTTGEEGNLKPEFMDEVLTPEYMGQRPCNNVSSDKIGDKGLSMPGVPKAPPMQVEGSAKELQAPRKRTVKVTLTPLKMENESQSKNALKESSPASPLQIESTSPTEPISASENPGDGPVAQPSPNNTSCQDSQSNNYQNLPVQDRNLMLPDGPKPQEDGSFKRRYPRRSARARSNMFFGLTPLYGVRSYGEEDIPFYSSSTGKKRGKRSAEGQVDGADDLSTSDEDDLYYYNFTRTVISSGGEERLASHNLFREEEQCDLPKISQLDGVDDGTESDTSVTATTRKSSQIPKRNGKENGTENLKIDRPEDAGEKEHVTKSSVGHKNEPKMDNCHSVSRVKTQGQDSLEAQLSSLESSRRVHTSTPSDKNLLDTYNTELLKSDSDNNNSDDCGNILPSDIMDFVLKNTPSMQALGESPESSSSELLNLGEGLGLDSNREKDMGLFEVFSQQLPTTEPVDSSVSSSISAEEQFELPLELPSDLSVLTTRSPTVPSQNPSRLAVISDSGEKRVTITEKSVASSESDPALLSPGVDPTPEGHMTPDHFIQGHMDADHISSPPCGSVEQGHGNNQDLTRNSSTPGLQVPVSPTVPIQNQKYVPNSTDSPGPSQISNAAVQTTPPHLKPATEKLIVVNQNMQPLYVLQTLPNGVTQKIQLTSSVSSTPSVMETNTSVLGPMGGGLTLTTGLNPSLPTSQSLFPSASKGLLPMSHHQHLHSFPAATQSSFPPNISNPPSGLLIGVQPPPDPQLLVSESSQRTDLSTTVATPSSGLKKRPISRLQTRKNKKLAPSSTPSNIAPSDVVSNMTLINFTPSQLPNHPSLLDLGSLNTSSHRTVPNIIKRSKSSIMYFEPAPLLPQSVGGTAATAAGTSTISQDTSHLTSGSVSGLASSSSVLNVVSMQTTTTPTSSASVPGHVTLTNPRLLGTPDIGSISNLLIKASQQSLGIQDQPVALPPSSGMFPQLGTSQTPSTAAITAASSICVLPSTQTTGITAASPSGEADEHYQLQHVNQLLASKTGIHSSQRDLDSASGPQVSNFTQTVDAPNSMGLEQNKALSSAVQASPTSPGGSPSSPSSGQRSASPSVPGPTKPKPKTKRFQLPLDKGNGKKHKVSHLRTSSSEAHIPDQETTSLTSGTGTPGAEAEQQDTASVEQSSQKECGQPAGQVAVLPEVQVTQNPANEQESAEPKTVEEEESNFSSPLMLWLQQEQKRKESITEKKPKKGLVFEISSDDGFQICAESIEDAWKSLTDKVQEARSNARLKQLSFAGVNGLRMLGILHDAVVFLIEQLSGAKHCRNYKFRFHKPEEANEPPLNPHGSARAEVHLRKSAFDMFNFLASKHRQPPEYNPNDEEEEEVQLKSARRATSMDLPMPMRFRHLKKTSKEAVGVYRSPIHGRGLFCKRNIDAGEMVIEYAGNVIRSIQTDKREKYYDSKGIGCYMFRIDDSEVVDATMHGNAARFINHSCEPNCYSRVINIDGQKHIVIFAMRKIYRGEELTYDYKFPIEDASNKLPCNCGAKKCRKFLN
Assay: menin-MLL interaction inhibitors, SAR follow-up, biochemical, fluorescence polarization (AID 743469)
Conditions: menin + fluorescein MLL peptide

Here's what some known entries look like.
[[record]]
compound = "N#Cc1ccc(OCCCN2CCC(C(O)(c3cc(F)cc(F)c3)c3ccccn3)CC2)cc1 (centres undefined)"
data_value = "43.7 nM"

[[record]]
compound = "N#Cc1ccc(OCCCN2CCC(C(O)(c3cccnc3)C3CCCC3)CC2)cc1 (centres undefined)"
data_value = "709 nM"

[[record]]
compound = "NS(=O)(=O)c1ccc(OCCCN2CCC(C(O)(c3cccc(F)c3)c3nccs3)CC2)cc1 (centres undefined)"
data_value = "43.7 nM"


Now turn to the next compound.
Fill in the blank: the reported IC50 of N#Cc1ccc(OCCCN2CCC(C(O)(c3cccc(F)c3)c3nccs3)CC2)cc1 (centres undefined) is ____.
19.7 nM
